Give measured relative viability for each item. Keep answers brief.
System: NCI-H727
test description: relative viability (nuclei count vs DMSO), 5 days (fraction); higher = more cells survive
measurement parameters: first compound 0.3162 µM
Number, no unit, nothing else.

Please report relative viability for the following molecule: CC(C)Oc1cc(Nc2nc(N[C@@H](C)c3ccc(F)cn3)ncc2Cl)n[nH]1 [AZ23] + CCNC(=O)c1noc(-c2cc(C(C)C)c(O)cc2O)c1-c1ccc(CN2CCOCC2)cc1 [Luminespib] (partner 0.01 µM)
0.454

Please report relative viability for the following molecule: CC(C)Oc1cc(Nc2nc(N[C@@H](C)c3ccc(F)cn3)ncc2Cl)n[nH]1 [AZ23] + CS(=O)(=O)CCNCc1ccc(-c2ccc3ncnc(Nc4ccc(OCc5cccc(F)c5)c(Cl)c4)c3c2)o1 [Lapatinib] (partner 2 µM)
0.751

Please report relative viability for the following molecule: CC(C)Oc1cc(Nc2nc(N[C@@H](C)c3ccc(F)cn3)ncc2Cl)n[nH]1 [AZ23] + O=C(CCCCCCC(=O)Nc1ccccc1)NO [Vorinostat] (partner 1 µM)
1.37
